# PROCEDURE SUMMARY: binders of probe aFST on microarray, primary screen, stem cell growth factor project, biochemical, small-molecule microarray, fluorescence 635/667 (AID 1086);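 also: score merges 667 nm fluorescence with signal-to-noise of each printed compound spot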
# DETAILS: higher = more signal
REPORTED PROPERTY: composite z-score

Worked examples, 3 molecules total:
MOLECULE | VALUE
CC(C)(C)OC(=O)CC[C@@]1(C(=O)NCCN2CCOCC2)N=C(c2ccc(OCCCO)cc2)O[C@@H]1c1ccccc1N=[N+]=[N-] | 1.67
C=CCOC(=O)[C@@H]1[C@H]2C(=O)O[C@H](c3ccccc3)[C@H](c3ccccc3)N2[C@H](c2ccc(OCCOC(=O)[C@@H]3C[C@@H]4C(=O)N5CCC[C@H]5C(=O)N4[C@@H]3c3ccc(O)cc3)cc2)[C@@]12C(=O)Nc1ccc(I)cc12 | 0.965
C=CCN(Cc1ccccc1)C(=O)C(c1cccs1)N(CCOCCO)C(=O)/C=C\C(=O)O (stereo not given) | -1.59

Given the entry CN1C(=O)C2C=CC(C(O)C3=C[C@H]4C[C@@H](C3)C4(C)C)N(Nc3ccccc3)C2C1=O (stereo not given in full) , report its measured composite z-score. 1.23

Given the entry O=C1OCCC=C[C@H]2OC34C=CCN(CCN5CCOCC5)C(=O)[C@H]3N(CCCCCCO)C(=O)[C@@H]4C12 (stereo not given in full) , report its measured composite z-score. -0.235

###

# PROCEDURE SUMMARY: binders of probe aFGF2 on microarray, primary screen, stem cell growth factor project, biochemical, small-molecule microarray, fluorescence 635/667 (AID 1067);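 also: measures binding of biotinylated aFGF2 protein to printed compounds on slides; z-score merges feature fluorescence and signal-to-noise across triplicate slides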
# DETAILS: higher = more signal
Each entry below carries its reported composite z-score.
# answer = number (no unit)

Worked examples, 5 molecules total:
MOLECULE | composite z-score
Cc1ccc(S[C@]2(C(=O)NC(C)C)CC(=O)N(Cc3ccccc3Cl)[C@@H]2c2ccc(CO)cc2I)cc1 | -0.223
CCOC1=C2C(CN(S(=O)(=O)c3ccc(C)cc3)C2c2ccc(C)cc2)C2C(=O)N(c3ccccc3)C(=O)C2C1 (centres undefined) | -0.0074
COc1ccc(CCNC(=O)[C@@H]2c3ccccc3C(=O)N(C3Cc4ccccc4C3)[C@H]2c2ccc(CO)cc2)cc1 | 0.0628
CN1C(=O)C2C=CC(C(O)C3CCCCC3)N(Nc3ccc([N+](=O)[O-])cc3[N+](=O)[O-])C2C1=O (centres undefined) | 0.0331
C=CC[C@@]1(C(=O)NCc2ccccc2)N=C(c2ccc(OCCCO)cc2)O[C@@H]1c1ccccc1N=[N+]=[N-] | 0.071

Given the entry CCOC(=O)C=Cc1cc([N+](=O)[O-])ccc1O , report its measured composite z-score. -0.159

Given the entry COc1ccc(C(=O)Nc2cccc(CN3C(=O)[C@]4(O[C@H](CCO)[C@@H]([Si](C)(C)c5ccc(OC)cc5)[C@@H]4C)c4ccccc43)c2)cc1 , report its measured composite z-score. -0.102

Given the entry COc1ccc(C(O)C2C=CC3C(=O)N(C)C(=O)C3N2N2CCCCC2)c2ccccc12 (centres undefined) , report its measured composite z-score. 0.192

Given the entry COCCOC(=O)N1C(=O)[C@@]2(c3cc(C#CC4=CCCCC4)ccc31)[C@H](C(=O)N1CCc3cc(OC)c(OC)cc3C1)[C@H]1C(=O)O[C@H](c3ccccc3)[C@H](c3ccccc3)N1[C@@H]2c1ccc(OCCO)cc1 , report its measured composite z-score. -0.0094

Given the entry CC(C)OC(=O)C=C1C[C@@H](c2ccccc2C(F)(F)F)O[C@@H](c2ccccc2C(F)(F)F)O1 , report its measured composite z-score. -0.0924

Given the entry CCOC(=O)C[C@H]1[C@H](OC(=O)Cc2ccc3c(c2)OCO3)[C@@H](NC(=O)c2ccc(-c3ccccc3)cc2)c2cc(OCCCO)ccc2N1C(=O)c1ccc2ccccc2n1 , report its measured composite z-score. -0.131

Given the entry CCCC#C[Si](O[C@H](CC)c1cn([C@H](CO)Cc2ccccc2)nn1)(C(C)C)C(C)C , report its measured composite z-score. -0.0856

###

# PROCEDURE SUMMARY: inhibitors of hydroxyurea-induced Chk1 phosphorylation, primary screen, imaging, HeLa, phospho-Chk1 nuclear intensity (AID 1187); also: test concentration not given here
# DETAILS: hydroxyurea-induced phospho-Chk1 immunofluorescence imaging, higher = more signal
Each entry below carries its reported z-score.
# answer = number (no unit)

Worked examples, 3 compounds total:
COMPOUND | z-score
CN(C)CCCC[C@@H]1NC(=O)[C@H]2C[C@@H](C(=O)NCCCCCNC(=O)CS)[C@@H](c3cccc(OCCO)c3)N2C1=O | -0.144
CCOC(=O)C1=CCC(c2ccc(C)cc2)N(S(=O)(=O)c2ccc(C)cc2)C1 (stereo not drawn) | 0.449
O=C1C2C=CC(C(O)c3c(F)cccc3Cl)N(Nc3ccccc3)C2C(=O)N1c1ccccc1 (stereo not drawn) | 0.683

Given the entry Cc1ccc(S[C@]2(C(=O)NCC(C)C)CC(=O)N(Cc3cc(C(F)(F)F)cc(C(F)(F)F)c3)[C@@H]2c2ccc(CO)cc2I)cc1 , report its measured z-score. 0.473

Given the entry CCCCC(O)C1C=CC2C(=O)N(c3ccccc3)C(=O)C2N1Nc1ccccc1F (stereo not drawn) , report its measured z-score. -0.0522

Given the entry CC[C@@H]1C=C(C(=O)O)[C@H](c2ccco2)N1S(=O)(=O)c1ccc(C)cc1 , report its measured z-score. 0.162

Given the entry [N-]=[N+]=NCc1ccccc1C[C@]1(C(=O)O)N=C(c2ccc(OCCCO)cc2)O[C@H]1c1ccccc1N=[N+]=[N-] , report its measured z-score. 0.16

Given the entry C#CCN(CC=C(C)C)[C@H](CO)c1ccccc1 , report its measured z-score. 0.457

###

# PROCEDURE SUMMARY: small-molecule microarray binders of probe aXIP, primary screen, biochemical, NeuroSMM set, 635/667 nm fluorescence (AID 1119);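 also: probe is the protein aXip251-270 applied at 1 µg/mL to compound-printed slides; binding of probe to printed compounds measured as 667 nm fluorescence plus signal to noise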
# DETAILS: higher = more signal, called active from +8 up or from −8 down
REPORTED PROPERTY: composite Z-score
# answer = number (no unit)

Given the entry COC(=O)c1c(CC[C@@H](CO)NC(=O)N2CCC[C@H]2Cn2cc(-c3ccccn3)nn2)oc(C(C)=O)c1C(=O)OC , report its measured composite Z-score. 0.294

Given the entry CCCN1C(=O)[C@]2(CCS(=O)(=O)c3ccccc3)N=C(c3ccc(OCCCO)cc3)O[C@@H]2c2ccccc21 , report its measured composite Z-score. -0.0745

Given the entry O=C1O[C@@H](c2ccccc2)[C@@H](c2ccccc2)N2[C@@H](c3ccccc3OCCO)[C@]3(C(=O)Nc4ccc(C#CC5=CCCCC5)cc43)[C@@H](C(=O)Nc3nc4ccccc4s3)[C@H]12 , report its measured composite Z-score. 0.243

Given the entry O=C(C1N=C(c2ccc(OCCCO)cc2)N(c2ccccc2)O1)N1CCOCC1 (stereo unspecified) , report its measured composite Z-score. 0.0285

Given the entry CC(C)(C)C(=O)N[C@@H](c1ccc(Cl)cc1)[C@]1(C)C[C@H]1C1CCCCC1 , report its measured composite Z-score. -0.149

Given the entry O=C1NCC(=O)N2[C@@H]1C[C@@H](C(=O)O)[C@H]2c1cccc(OCCO)c1 , report its measured composite Z-score. 10.2

###

Each entry below carries its reported z-score.
# PROCEDURE SUMMARY: S. cerevisiae RM11-1a growth modifiers, primary screen, strain RM11-1a, OD600, basal, 24 h (AID 1177);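 also: cultures grown under basal conditions with no added stressor; test concentration not given here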
# DETAILS: OD600, 24 h, higher = more signal, called active from +8 up or from −8 down
The source made the active and inactive calls.

COMPOUND | REPORTED PROPERTY | VALUE
COc1ccc(C#Cc2ccc3c(c2)[C@]2(C(=O)N3)[C@H](c3ccccc3OCCO)N3[C@H](c4ccccc4)[C@H](c4ccccc4)OC(=O)[C@H]3[C@@H]2C(=O)O)cc1 | z-score | 3.13 (inactive)
COC(=O)c1c(CC[C@@H](CO)NC(=O)N2CCC[C@H]2Cn2cc(-c3ccccn3)nn2)oc(C(C)=O)c1C(=O)OC | z-score | -1.19 (inactive)
COc1cc2c(cc1O)C=[N+](Cc1cccc(OC(F)(F)F)c1)CC2 | z-score | -0.957 (inactive)
COCCOC(=O)N1C(=O)[C@@]2(c3cc(C#CCNC(N)=O)ccc31)[C@H](C(=O)NC[C@H](O)c1ccccc1)[C@H]1C(=O)O[C@H](c3ccccc3)[C@H](c3ccccc3)N1[C@@H]2c1ccccc1OCCO | z-score | 1.97 (inactive)
COc1ccc(C(=O)Nc2ccc(CN3C(=O)[C@@]4(O[C@@H](CC(=O)N5CCC[C@H]5CO)[C@H]([Si](C)(C)c5ccc(OC)cc5)[C@H]4C)c4ccccc43)cc2)cc1 | z-score | 0.515 (inactive)
CCOC(=O)C[C@H]1[C@H](OC(=O)Cc2ccc3c(c2)OCO3)[C@@H](NC(=O)c2ccc(-c3ccccc3)cc2)c2cc(OCCCO)ccc2N1C(=O)c1ccc2ccccc2n1 | z-score | -1.63 (inactive)
C=CCOC(=O)[C@H]1[C@@H]2C(=O)O[C@@H](c3ccccc3)[C@@H](c3ccccc3)N2[C@@H](c2ccc(OCCOC(=O)[C@H]3C[C@H]4C(=O)N5CCC[C@H]5C(=O)N4[C@H]3c3ccc(O)cc3)cc2)[C@]12C(=O)Nc1ccc(I)cc12 | z-score | -0.632 (inactive)
COc1ccc(COC2OC[C@]3(C)[C@H]4C5=C(CN3C(=O)OC(C)(C)C)[C@H](C)C(CO)C(CO)C5CC[C@@H]24)cc1 (stereo partly drawn) | z-score | 0.903 (inactive)

Given the entry CCCCC(=C=CC[C@@H](O)c1ccccc1OCCO)CCO , report its measured z-score. 0.853 (inactive)

Given the entry O=C1NCC(=O)N2[C@@H]1C[C@@H](C(=O)O)[C@H]2c1cccc(OCCO)c1 , report its measured z-score. 0.569 (inactive)

Given the entry COCCOC(=O)N1C(=O)[C@@]2(c3cc(C#Cc4ccc(OC)cc4)ccc31)[C@H](C(=O)N1CCCCCCC1)[C@H]1C(=O)O[C@H](c3ccccc3)[C@H](c3ccccc3)N1[C@@H]2c1ccc(OCCO)cc1 , report its measured z-score. 0.262 (inactive)

Given the entry [N-]=[N+]=NCc1ccccc1C[C@]1(C(=O)O)N=C(c2ccc(OCCCO)cc2)O[C@H]1c1ccccc1N=[N+]=[N-] , report its measured z-score. 1.45 (inactive)

Given the entry [N-]=[N+]=NCc1ccccc1[C@H]1OC(c2ccc(OCCCO)cc2)=N[C@@]1(Cc1ccccc1)C(=O)NCc1ccccc1 , report its measured z-score. 0.747 (inactive)
